Readings of LD50 at 72 h for the listed compounds
Assay: Acute toxicity test in mice
Settings: mouse, in vivo, oral, parentheses: 95% confidence limit
Description: The test drugs were suspended in 5% gum arabic aqueous solution to make 50 mg/ml, and given orally male mice of ddY strain weighing 18-22 g and male rats of Wistar strain weighing 95-120 g. The LD50 values were calculated from the mortality of the animals that ensued during the 72 hours following the drug administration

Below are worked cases with known answers.
[
  {
    "compound": "CC(=O)OCC(C)(O)C1CC=C(C)CC1 (stereo not drawn)",
    "LD50 at 72 h": "1000 to 2000 mg/kg"
  },
  {
    "compound": "CCC(=O)OCC(C)(O)C1CC=C(C)CC1 (stereo not drawn)",
    "LD50 at 72 h": "> 4000 mg/kg"
  }
]

As a next step, examine the compound that follows.
Report LD50 at 72 h, nothing else, for this compound: CC1=CCC(C(C)(O)CO)CC1 (stereo not drawn)
1800 mg/kg
